The measured values listed here are drawn from the supplement of paper PMC10065799.

biological target: Grb2 SH2 (UniProt P62993); test: SH2 binding enrichment of the phosphorylated peptide, bacterial display (enrichment ratio); higher = better substrate or ligand; peptides without Tyr show the background
Sequence (P62993 whole entry, looked up): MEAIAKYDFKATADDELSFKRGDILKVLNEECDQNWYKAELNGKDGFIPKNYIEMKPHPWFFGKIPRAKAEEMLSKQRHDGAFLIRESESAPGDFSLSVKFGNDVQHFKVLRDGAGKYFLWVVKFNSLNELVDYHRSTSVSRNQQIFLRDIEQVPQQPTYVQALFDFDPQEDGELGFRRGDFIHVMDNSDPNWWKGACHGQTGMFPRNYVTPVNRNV
METRIC: SH2 binding enrichment
Give the value as a plain number.

Some sequences with known SH2 binding enrichment results, for comparison:
{"columns": ["SEQUENCE_CONTENT", "SH2 binding enrichment"],
 "data": [
  ["KRAIGHYSATS [FAM120A_Y327_Y327H]", 1.12],
  ["DGNTRYSTFSE [TKTL1_Y318_D315N]", 0.655],
  ["FLAVGYHKPYI [IDS_Y225_H229Y]", 0.98]
]}

Quote SH2 binding enrichment reported for CQAHGYFCQPI [STK11_Y156_L160P] please.
1.15

Quote SH2 binding enrichment reported for FSNVLYRPRGP [TMIGD2_Y197_A202P_YF] please.
0.693

Quote SH2 binding enrichment reported for TRSYDYMEGGD [FGF7_Y58] please.
0.871

Quote SH2 binding enrichment reported for KRLDGYVLEGW [IGSF9_Y656_R661W] please.
0.844

* * *

test system: Fer (mouse); assay: phosphorylation enrichment, bacterial display (enrichment ratio); higher = better substrate or ligand; peptides without Tyr show the background;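 note: frequency after pTyr selection over input frequency; kinase dosed for 20-30% of maximal phosphorylation in three min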
Values of phosphorylation enrichment greater than or equal to 0.5 map to rule met; values below map to rule not met.

Solved entries:
{"columns": ["SEQUENCE_CONTENT", "GROUP"],
 "data": [
  ["KTGDFYDLFGG [PTPN11_Y63_N58K_YF]", "rule met"],
  ["EDNPEYMRLRN [ADD2_Y31_D28N]", "rule not met"],
  ["RNNIEYVRDIG [MUSK_Y577]", "rule not met"],
  ["LLVVLNKYRCY [PSEN1_Y154_Y154N]", "rule met"],
  ["QYRFIYMAVQH [PTPN11_Y515]", "rule met"],
  ["NTSKMYIPHTD [EXPH5_Y782_D777N]", "rule not met"]
]}

phosphorylation enrichment >= 0.5 for FEGAIYRKDIG [GART_Y417_V421I] ?
rule not met

phosphorylation enrichment >= 0.5 for LNFNEYFRDLN [HPRT1_Y198_D194N_YF] ?
rule met

phosphorylation enrichment >= 0.5 for VIKDKYPQARY [APTX_Y209_K211Q] ?
rule not met

phosphorylation enrichment >= 0.5 for ILKPDYQPLAI [HYDIN_Y1072] ?
rule not met

phosphorylation enrichment >= 0.5 for CDTKLYTSAPN [DNTTIP2_Y427] ?
rule met

phosphorylation enrichment >= 0.5 for ILGRYYERGSI [PAX5_Y73_T75R] ?
rule not met

phosphorylation enrichment >= 0.5 for CEHRGCLYLAI [TEK_Y897_Y897C] ?
rule not met

* * *

Recorded phosphorylation enrichment values for a group of sequences are listed next.
tested on: Fer (mouse); assay: phosphorylation enrichment, bacterial display (enrichment ratio); higher = better substrate or ligand; peptides without Tyr show the background;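 note: 11-residue human phosphosite peptides and single-mutation variants displayed on the E. coli surface, counted by deep sequencing, each peptide's frequency after selection divided by its frequency in the unselected input library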;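 note: frequency after pTyr selection over input frequency; kinase dosed for 20-30% of maximal phosphorylation in three min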
Give the value as a plain number.

Some sequences with known phosphorylation enrichment results, for comparison:
{"columns": ["SEQUENCE_CONTENT", "TARGET_UNDER_TEST", "METRIC", "OBSERVED_RESULT"],
 "data": [
  ["TLRKTYGEMAD [ALB_Y108_E106K]", "Fer (mouse)", "phosphorylation enrichment", 0.379],
  ["LIFTNYEVGKD [GSTP1_Y112_A114V_YF]", "Fer (mouse)", "phosphorylation enrichment", 1.17],
  ["EWQQTYTYDSG [JUP_Y20]", "Fer (mouse)", "phosphorylation enrichment", 0.513]
]}

Quote phosphorylation enrichment reported for FRSSLYLLMET [MYO5C_Y633] please.
0.687

Quote phosphorylation enrichment reported for SQQTFCRVSNM [ABCD1_Y181_Y181C_YF] please.
0.408

Quote phosphorylation enrichment reported for EHTILYSNNST [KANSL1_Y223_T221I] please.
0.732

Quote phosphorylation enrichment reported for CATIHYNYMCN [TP53_Y234_T230A] please.
0.573

Quote phosphorylation enrichment reported for PVQAAYQQVVA [HBB_Y131_K133Q] please.
0.484

Quote phosphorylation enrichment reported for RAMPVYKKAEH [TP63_Y231] please.
0.28

Quote phosphorylation enrichment reported for HITQVYGFFDE [PPP2CA_Y127_Q122H_YF] please.
0.823

Quote phosphorylation enrichment reported for QYQEKYKQMEQ [HCN4_Y531_V534M] please.
0.632

Quote phosphorylation enrichment reported for IGRWVYPLTPE [EIF2B5_Y319_R315G] please.
0.461

Quote phosphorylation enrichment reported for SKNSKYNAEST [PSEN1_Y315] please.
0.396

Quote phosphorylation enrichment reported for TNGFTCGSSHQ [MANEA_Y331_Y331C] please.
0.412

Quote phosphorylation enrichment reported for YHLLPYTVRAM [PARS2_Y93] please.
0.595

Quote phosphorylation enrichment reported for SRDPFYEMLTA [CYTH1_Y382_A386T] please.
11
